- Tested on: Streptococcus pneumoniae
- PROTOCOL: Antibacterial activity against erm(B) ribosomal methylase gene containing Streptococcus pneumoniae OC4051
- Type: functional
Would you kindly list MIC for each of these compounds?
One number for each entry, in µg/mL.

Illustrative cases are given below, each with its answer.
1. CC[C@H]1OC(=O)[C@H](C)[C@@H](OC(=O)N(C)C)[C@H](C)[C@@H](O[C@@H]2O[C@H](C)C[C@H](N(C)C)[C@H]2O)[C@](C)(OC(=O)NC/C=C/c2ccc(-c3ncccn3)cc2)C[C@@H](C)C(=O)[C@H](C)[C@H]2NC(=O)O[C@@]21C 0.25
2. CC[C@H]1OC(=O)[C@H](C)[C@@H](OC(=O)N(C)c2ccncc2)[C@H](C)[C@@H](O[C@@H]2O[C@H](C)C[C@H](N(C)C)[C@H]2O)[C@](C)(OC(=O)NC/C=C/c2ccc(-c3ncccn3)cc2)C[C@@H](C)C(=O)[C@H](C)[C@H]2NC(=O)O[C@@]21C 0.25
3. CC[C@H]1OC(=O)[C@H](C)[C@@H](OC(=O)NC2CCCCC2)[C@H](C)[C@@H](O[C@@H]2O[C@H](C)C[C@H](N(C)C)[C@H]2O)[C@](C)(OC(=O)NC/C=C/c2ccc(-c3ncccn3)cc2)C[C@@H](C)C(=O)[C@H](C)[C@H]2NC(=O)O[C@@]21C 4

From here, focus on the item given below.
Request: Requested read-out: MIC. Entry: `CC[C@H]1OC(=O)[C@H](C)[C@@H](OC(=O)N(CC)CC)[C@H](C)[C@@H](O[C@@H]2O[C@H](C)C[C@H](N(C)C)[C@H]2O)[C@](C)(OC(=O)NC/C=C/c2ccc(-n3cccn3)cc2)C[C@@H](C)C(=O)[C@H](C)[C@H]2NC(=O)O[C@@]21C`
Response: 0.5
